B1: library; a variant is named by its letters at N, in order (parent)
chain: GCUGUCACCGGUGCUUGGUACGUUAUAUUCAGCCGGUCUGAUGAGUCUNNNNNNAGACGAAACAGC

Variants of: B1
Assay Details: normalized RNA/DNA level with ligand (relative to sTRSVctl = 100) (log10 (% of sTRSVctl)); HEK293T overexpressing SLC46A1; ligand concentration (+) RNA-Seq: 6 mM; higher = less ribozyme self-cleavage, higher mRNA level
Run Conditions: with (6R,S)-folinic acid; ligand present: yes
Measurement Name: normalized RNA/DNA level with ligand (log10)
// no unit string in output, number only

Below: 3 variants and their reported normalized RNA/DNA level with ligand (log10).
Residue Change | Assay Result
GUGUUC | 2.01
UUGGGA | 2.03
ACUGAU | 2

In: # lookup: normalized RNA/DNA level with ligand (log10) of `CUGAGA`
Out: 1.99

In: What about `CAUUCG` ?
Out: 2

In: What about `AAACUC` ?
Out: 2.03

In: What about `GUCCUU` ?
Out: 2.01

In: What about `GAGGUC` ?
Out: 2.04
